- Tested on: pigweed (Amaranthus retroflexus)
- assay_info: Test A preemergence
- Type: in vivo
- experimental_parameters: Amaranthus retroflexus, pre-emergence, 240 h, 125 g ai/ha, preemergence; 0 to 100 scale where 0 is no effect and 100 is complete control; approx. 10 d; read-out: Pigweed plant response rating
measure: pest or weed control at 125 g/ha (%)

- compound: "CN1C[C@H](c2csc3ccccc23)[C@@H](C(=O)Nc2cccc(F)c2F)C1=O"
  measured_value: 0
- compound: "CN1C[C@H](c2cc(C(F)F)cs2)[C@@H](C(=O)Nc2cnccc2C(F)(F)F)C1=O"
  measured_value: 0
- compound: "O=C1NC[C@H](c2csc(C(F)F)c2)[C@H]1C(=O)Nc1cccc(F)c1F"
  measured_value: 0
- compound: "CC(C)Oc1cc([C@H]2CN(C)C(=O)[C@@H]2C(=O)Nc2cccc(F)c2F)ccc1F"
  measured_value: 20
- compound: "CN1C[C@H](c2cccc([Si](C)(C)C)c2)[C@@H](C(=O)Nc2cccc(F)c2F)C1=O"
  measured_value: 0
- compound: "COCOCc1ccccc1NC(=O)[C@H]1C(=O)N(C)C[C@@H]1c1cccc(C(F)(F)F)c1 (racemic)"
  measured_value: 0
- compound: "CSc1ccccc1NC(=O)C1C(=O)NCC1C=C(C)C (centres unmarked)"
  measured_value: 0
- compound: "Cc1ccc([C@H]2CNC(=O)[C@]2(Br)C(=O)Nc2cccc(F)c2F)cc1F (racemic)"
  measured_value: 100

* * *

- Tested on: ragweed (common ragweed, Ambrosia elatior)
- assay_info: Test A preemergence
- Assay type: in vivo
- experimental_parameters: Ambrosia artemisiifolia, pre-emergence, 240 h, 500 g ai/ha, preemergence; 0 to 100 scale where 0 is no effect and 100 is complete control; read-out: Ragweed plant response rating
Entries and their measured pest or weed control at 500 g/ha follow.

- compound: "Cc1c(F)ccc([C@H]2CNC(=O)[C@@H]2C(=O)Nc2ccccc2F)c1F"
  pest or weed control at 500 g/ha: "0%"
- compound: "CN1C[C@H](c2ccc(C(F)(F)F)cc2)[C@@](F)(C(=O)Nc2cccc(F)c2F)C1=O (racemic)"
  pest or weed control at 500 g/ha: "60%"
- compound: "Cc1nc([C@H]2CN(C)C(=O)[C@@H]2C(=O)Nc2cccc(F)c2F)cs1"
  pest or weed control at 500 g/ha: "60%"
- compound: "O=C1NC[C@H](c2cccc(I)c2)[C@H]1C(=O)Nc1ccccc1F"
  pest or weed control at 500 g/ha: "0%"

* * *

- Test system: Kochia (Kochia scoparia)
- assay_info: Test A preemergence
- Format: in vivo
- experimental_parameters: 125 g ai/ha, Preemergence; visual injury after approximately 10 d; 0 to 100 scale where 0 is no effect and 100 is complete control

- compound: "CN1CC(c2cc(F)cc(F)c2)C(C(=O)Nc2ccc(F)c(F)c2F)C1=O (stereo not shown)"
  Plant response rating, Kochia: 60
- compound: "CN1CC(c2ccc(C(C)(F)F)cc2)C(C(=O)Nc2cccc(F)c2F)C1=O (stereo not shown)"
  Plant response rating, Kochia: 80
- compound: "Cc1cccc(C2CN(C)C(=O)C2C(=O)Nc2ccccc2S(C)(=O)=O)c1 (stereo not shown)"
  Plant response rating, Kochia: 20
- compound: "CN1CC(c2cccc(C(F)(F)F)c2)C(C(=O)Nc2ccc(F)cc2F)C1=O (stereo not shown)"
  Plant response rating, Kochia: 60
